- Measurement Target: Tyrosine-protein kinase JAK2 (Homo sapiens, UniProt O60674)
- Sequence (O60674 whole entry): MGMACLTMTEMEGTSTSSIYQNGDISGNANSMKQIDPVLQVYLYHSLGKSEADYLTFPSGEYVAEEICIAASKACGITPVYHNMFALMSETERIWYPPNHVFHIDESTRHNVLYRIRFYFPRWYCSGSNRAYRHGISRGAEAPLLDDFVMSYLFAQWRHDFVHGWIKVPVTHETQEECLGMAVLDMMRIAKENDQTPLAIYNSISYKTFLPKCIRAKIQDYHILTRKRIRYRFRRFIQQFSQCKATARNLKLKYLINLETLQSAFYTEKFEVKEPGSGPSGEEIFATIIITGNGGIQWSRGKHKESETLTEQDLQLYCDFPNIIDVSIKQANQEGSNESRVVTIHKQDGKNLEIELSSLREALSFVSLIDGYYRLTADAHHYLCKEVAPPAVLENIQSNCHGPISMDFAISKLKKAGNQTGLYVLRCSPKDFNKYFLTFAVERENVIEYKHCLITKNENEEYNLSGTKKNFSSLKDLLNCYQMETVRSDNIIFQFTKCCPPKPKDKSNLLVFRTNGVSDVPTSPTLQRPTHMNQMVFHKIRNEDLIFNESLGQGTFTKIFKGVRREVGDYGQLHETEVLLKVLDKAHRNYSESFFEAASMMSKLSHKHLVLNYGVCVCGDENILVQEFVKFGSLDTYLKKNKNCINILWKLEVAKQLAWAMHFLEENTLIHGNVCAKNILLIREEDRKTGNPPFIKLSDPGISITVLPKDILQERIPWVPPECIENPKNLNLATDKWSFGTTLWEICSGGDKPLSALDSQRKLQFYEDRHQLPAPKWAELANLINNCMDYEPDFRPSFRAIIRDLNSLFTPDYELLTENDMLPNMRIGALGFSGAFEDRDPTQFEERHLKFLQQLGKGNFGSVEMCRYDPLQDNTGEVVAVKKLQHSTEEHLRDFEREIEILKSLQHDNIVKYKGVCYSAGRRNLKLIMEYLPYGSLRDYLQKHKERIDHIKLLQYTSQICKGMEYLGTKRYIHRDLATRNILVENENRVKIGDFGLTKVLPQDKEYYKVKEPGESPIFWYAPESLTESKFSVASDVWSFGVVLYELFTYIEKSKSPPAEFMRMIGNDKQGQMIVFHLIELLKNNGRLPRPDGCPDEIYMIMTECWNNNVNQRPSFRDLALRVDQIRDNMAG
- Procedure Text: Inhibition of JAK2 (unknown origin) after 1 hr FRET-based Z'-Lyte assay
pIC50: −log10 of the molar value.
Experimental Readout: pIC50

Below are worked cases with known answers.
Considering `Nc1n[nH]c2ccc(C(=O)Nc3c(Cl)cccc3Cl)cc12` , its pIC50 with Tyrosine-protein kinase JAK2 (Homo sapiens, UniProt O60674) was recorded as 7.55

Considering `c1ccc(-n2cnnn2)c(-c2cc(-c3ccc4[nH]ncc4c3)on2)c1` , its pIC50 with Tyrosine-protein kinase JAK2 (Homo sapiens, UniProt O60674) was recorded as 5.70

Considering `Nc1n[nH]c2ccc(NC(=O)c3cc(Cl)ccc3Cl)cc12` , its pIC50 with Tyrosine-protein kinase JAK2 (Homo sapiens, UniProt O60674) was recorded as 7.64

P: Nc1n[nH]c2ccc(C(=O)Nc3cc(Cl)ccc3Cl)cc12
Q: CCNc1ccccc1C(=O)Nc1ccc2[nH]ncc2c1
Asked: Could you tell me which of P and Q has the lower pIC50 reading? Label of pick, please.
Given back: Q
(Q: 5.40, P: 7.42)
